system.tested: Phosphatidylinositol 4,5-bisphosphate 3-kinase catalytic subunit gamma isoform (Homo sapiens, UniProt P48736)
Sequence (P48736 whole entry, canonical isoform): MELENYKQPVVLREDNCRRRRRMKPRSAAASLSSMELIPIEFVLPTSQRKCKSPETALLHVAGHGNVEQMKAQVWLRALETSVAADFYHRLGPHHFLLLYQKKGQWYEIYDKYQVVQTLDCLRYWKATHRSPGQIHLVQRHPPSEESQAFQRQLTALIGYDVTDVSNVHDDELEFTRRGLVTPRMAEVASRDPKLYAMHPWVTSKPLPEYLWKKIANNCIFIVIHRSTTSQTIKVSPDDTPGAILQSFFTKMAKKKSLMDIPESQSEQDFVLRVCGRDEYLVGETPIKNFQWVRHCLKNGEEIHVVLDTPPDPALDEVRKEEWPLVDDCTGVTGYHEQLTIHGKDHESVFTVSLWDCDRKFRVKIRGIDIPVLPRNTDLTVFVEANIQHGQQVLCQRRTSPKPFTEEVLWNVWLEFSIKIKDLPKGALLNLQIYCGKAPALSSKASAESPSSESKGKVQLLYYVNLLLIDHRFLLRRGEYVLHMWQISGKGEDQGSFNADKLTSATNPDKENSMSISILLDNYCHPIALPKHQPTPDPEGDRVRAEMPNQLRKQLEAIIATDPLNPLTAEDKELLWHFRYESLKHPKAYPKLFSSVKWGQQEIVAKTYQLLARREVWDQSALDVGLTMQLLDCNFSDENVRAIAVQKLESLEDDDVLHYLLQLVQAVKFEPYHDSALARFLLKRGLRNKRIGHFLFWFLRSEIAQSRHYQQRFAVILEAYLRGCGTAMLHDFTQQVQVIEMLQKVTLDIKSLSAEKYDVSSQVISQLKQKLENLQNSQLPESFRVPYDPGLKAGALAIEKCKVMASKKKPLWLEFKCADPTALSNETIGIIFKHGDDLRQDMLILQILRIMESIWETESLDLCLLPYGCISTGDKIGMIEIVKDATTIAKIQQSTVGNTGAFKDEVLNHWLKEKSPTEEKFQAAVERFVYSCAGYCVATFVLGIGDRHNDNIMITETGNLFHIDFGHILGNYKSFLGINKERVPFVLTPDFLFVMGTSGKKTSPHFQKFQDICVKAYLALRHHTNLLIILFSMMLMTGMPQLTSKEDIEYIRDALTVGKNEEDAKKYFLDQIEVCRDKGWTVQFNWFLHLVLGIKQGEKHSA
test: Inhibition of human full length PI3Kgamma using PIP2/ATP as substrate after 30 mins by TR-FRET assay
Reported IC50 is given for each of the following molecules.
measurement.label: IC50 (nM)

| smiles.notation | u | value |
| --- | --- | --- |
| C[C@H](Nc1nc(N)nc(N)c1C#N)c1nc2cccc(Cl)c2c(=O)n1-c1cc[nH]n1 | nM | 54 |
| C[C@H](Nc1ncnc(N)c1C#N)c1nc2cccc(Cl)c2c(=O)n1-c1ccccc1 | nM | 154 |
| C[C@H](Nc1ncnc(N)c1C#N)c1nc2cccc(Cl)c2c(=O)n1-c1ccc(O)cc1 | nM | 187 |
| C[C@H](Nc1nc(N)nc(N)c1Cl)c1nc2cccc(Cl)c2c(=O)n1-c1ccon1 | nM | 499 |
| N#Cc1c(N)nc(N)nc1N[C@H](c1nc2cccc(Cl)c2c(=O)n1-c1cc[nH]n1)C1CC1 | nM | 199 |
| Nc1nc(N)c(Cl)c(N[C@H](c2nc3cccc(Cl)c3c(=O)n2-c2cc[nH]n2)C2CC2)n1 | nM | 4150 |
| CC[C@H](Nc1ncnc2[nH]cnc12)c1nc2cccc(F)c2c(=O)n1-c1ccc(O)cc1 | nM | 4300 |

###

test: Unbound fraction in Beagle dog plasma
Format: ADME, cell-free, Canis lupus familiaris
measurement.label: fraction unbound

| smiles.notation | value |
| --- | --- |
| C[C@H](Nc1nc(N)nc(N)c1Cl)c1nc2c(Cl)cc(F)cc2c(=O)n1-c1cc[nH]n1 | 0.0196 |

###

test: Mean residence time in Beagle dog plasma at 1 mg/kg, iv administered via infusion over 30 mins measured over 24 hrs by LC/MS/MS analysis
Assay type: ADME, organism-based, Canis lupus familiaris
measurement.label: MRT (h)

| smiles.notation | u | value |
| --- | --- | --- |
| C[C@H](Nc1nc(N)nc(N)c1Cl)c1nc2c(Cl)cc(F)cc2c(=O)n1-c1cc[nH]n1 | h | 4.7 |

###

test: Volume of distribution at steady state in rhesus monkey at 1 mg/kg, iv administered via infusion over 30 mins measured over 24 hrs by LC/MS/MS analysis
Assay type: ADME, organism-based, Macaca mulatta
measurement.conditions: in vivo, read-out: Vdss

| smiles.notation | Vd |
| --- | --- |
| C[C@H](Nc1nc(N)nc(N)c1Cl)c1nc2c(Cl)cc(F)cc2c(=O)n1-c1cc[nH]n1 | 1.88 L/kg |

###

test: Clearance in Sprague-Dawley rat at 1 mg/kg, iv administered via infusion over 30 mins measured over 24 hrs by LC/MS/MS analysis
Assay type: ADME, organism-based
measurement.conditions: in vivo
Reported clearance is given for each of the following compounds.

| smiles.notation | clearance, mL/min/kg |
| --- | --- |
| C[C@H](Nc1nc(N)nc(N)c1Cl)c1nc2c(Cl)cc(F)cc2c(=O)n1-c1cc[nH]n1 | 4.33 |
| N#Cc1c(N)nc(N)nc1N[C@H](c1nc2c(Cl)cc(F)cc2c(=O)n1-c1cc[nH]n1)C1CC1 | 1.17 |
| Nc1nc(N)c(Cl)c(N[C@H](c2nc3cccc(Cl)c3c(=O)n2-c2cc[nH]n2)C2CC2)n1 | 9.67 |
| C[C@H](Nc1nc(N)nc(N)c1Cl)c1nc2cccc(Cl)c2c(=O)n1-c1cc[nH]n1 | 23.8 |
